# STUDY_SYSTEM: tumor necrosis factor alpha (TNFα) (human, UniProt P01375 77-233)
# Sequence (P01375 77-233 limits assumed): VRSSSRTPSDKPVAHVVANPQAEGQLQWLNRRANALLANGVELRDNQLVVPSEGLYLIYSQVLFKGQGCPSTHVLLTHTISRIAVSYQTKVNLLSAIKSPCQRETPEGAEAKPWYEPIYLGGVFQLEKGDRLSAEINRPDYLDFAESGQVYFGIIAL
# EXPERIMENT: affinity by IC50 ELISA (so named in paragraph 380)
PROPERTY_LABEL: Affinity (nM)
Numbers only, in nM.

MAb 1780 (antibody, V domains shown, IgG1/kappa, CHO; also called H1685/L332) VH: EVQLVESGGGLIQPGGSLRLSCAVSGLNVSRDYMSWVRQAPGKGLEWISVIYRGGATMYADSVKGRFTISRDTSKNTVFLQMSRLKVADTAVYYCARNYYGSTLDYWGQGTLVTVSS VL: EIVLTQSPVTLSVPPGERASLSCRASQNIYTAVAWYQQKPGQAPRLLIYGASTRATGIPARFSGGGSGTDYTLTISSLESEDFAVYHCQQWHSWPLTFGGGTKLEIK | 0.23

Hi! Can you tell me Affinity for each of these binders?
1. MAb 1777 (antibody, V domains shown, IgG1/kappa, CHO; also called H1684/L332) VH: EVQLVESGGGLIQPGGSLRLSCAVSGLNVSRDYMSWVRQAPGKGLEWISVIYRGGATMYADSVKGRFTISRDTSKNTVFLQMSRLKVADTAVYYCARNYYGSTIDYWGQGTLVTVSS VL: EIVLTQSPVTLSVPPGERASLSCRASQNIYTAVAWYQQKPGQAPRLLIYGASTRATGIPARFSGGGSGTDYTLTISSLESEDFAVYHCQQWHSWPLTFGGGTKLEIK
2. MAb 1714 (antibody, V domains shown, IgG1/kappa, CHO; also called H1678/L332) VH: EVQLVESGGGLIQPGGSLRLSCAVSGLNVSRDYMSWVRQAPGKGLEWISVIYRGGATMYADSVKGRFTISRDTSKNTVFLQMSRLKVADTAVYYCARNYYGSTFDYWGQGTLVTVSS VL: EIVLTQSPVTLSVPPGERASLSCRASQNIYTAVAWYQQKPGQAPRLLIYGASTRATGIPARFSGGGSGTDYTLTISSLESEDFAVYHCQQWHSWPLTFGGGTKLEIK
3. MAb 1775 (antibody, V domains shown, IgG1/kappa, CHO; also called H1687/L332) VH: EVQLVESGGGLIQPGGSLRLSCAVSGLNVSRDYMSWVRQAPGKGLEWISVIYRGGATMYADSVKGRFTISRDTSKNTVFLQMSRLKVADTAVYYCARNYYGSTMDYWGQGTLVTVSS VL: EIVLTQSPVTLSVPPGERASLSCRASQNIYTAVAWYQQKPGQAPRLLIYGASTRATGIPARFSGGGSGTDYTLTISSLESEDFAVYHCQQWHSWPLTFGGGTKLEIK
4. MAb 1371 (antibody, V domains shown, IgG1/kappa, CHO; also called H1596/L332) VH: EVQLVESGGGLIQPGGSLRLSCAVSGLNVSRDYMSWVRQAPGKGLEWISVIYRGGATMYADSVKGRFTISRDTSKNTVFLQMSRLKVADTAVYYCARNYYGSTHDYWGQGTLVTVSS VL: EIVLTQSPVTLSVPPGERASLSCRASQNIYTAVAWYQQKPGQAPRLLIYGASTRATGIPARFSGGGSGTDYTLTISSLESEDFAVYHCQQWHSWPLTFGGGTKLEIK

Solution:
1. 0.18
2. 0.16
3. 0.22
4. 0.2

Where do the numbers come from? From patent US20080267974A1.
